test: qHTS for identification of novel therapeutic agents for treatment of microphthalmiaassociated transcription factor (MiT) renal cell carcinoma (RCC) (AID 1963991); settings: TFE3-RCC UOK109 viability, CellTiter-Glo, 48 h; active = Z-AUC below -0.8 in all three lines; note: potency is the fitted concentration of half-maximal effect
Records with an inconclusive call do not appear. The source made the active and inactive calls.
MEASURE: Potency

FC(F)(F)c1ccc(C=Cc2nc(COc3ccc(CCCCn4ccnn4)cc3)co2)cc1 :: 0.00296 µM (active)
CCC[C@H](Nc1nc(-c2ccc(NC(=O)NCC)c(OC)c2)ncc1C)c1cccnc1 :: 0.0372 µM (active)
CN(C)CCN(C)C(=O)c1ccc(NC(=O)Nc2ccc(-c3nc(N4CCOCC4)c4ccn(CC(F)(F)F)c4n3)cc2)cc1 :: 1.32 µM (active)

Would you mind listing Potency for each of the following molecules?
1. Nc1ccc(-c2ccc3ncc4ccc(=O)n(-c5cccc(C(F)(F)F)c5)c4c3c2)cn1
2. CCC(=O)N1CCN(c2ccc(-n3c(=O)ccc4cnc5ccc(-c6cnc7ccccc7c6)cc5c43)cc2C(F)(F)F)CC1
3. CC1(C)CC(=O)c2c(C(F)(F)F)nn(-c3ccc(C(N)=O)c(NC4CCC(O)CC4)c3)c2C1 (configuration not stated)
4. CC[C@]1(O)C[C@H]2CN(CCC3=c4ccccc4=N[C]3[C@@](C(=O)OC)(c3cc4c(cc3OC)N(C)[C@H]3[C@@](O)(C(N)=O)[C@H](O)[C@]5(CC)C=CCN6CC[C@]43[C@@H]65)C2)C1

1. 3.32 µM (active)
2. 0.0209 µM (active)
3. 0.372 µM (active)
4. 0.332 µM (active)

----------
experiment: qHTS of pediatric cancer cell lines to identify multiple opportunities for drug repurposing: Primary screen for SJ-GBM2 cells (AID 1347091); conditions: SJ-GBM2 viability, CellTiter-Glo luminescence, 48 h; series mostly up to 46 µM
Inconclusive results are not listed. Calls of active or inactive are those of the source. The call rests on the fitted dose curve; in most records, active means well fitted cell-killing curve with a large enough effect; inconclusive means small, poorly fitted or top-dose-only effect; inactive means no such curve, though single readings can be large or run the other way.
Respond with a class label; see yes = active, no = inactive

Consider the worked cases shown below.
C[C@@H]1C[C@H]2[C@@H]3CCC4=CC(=O)C=C[C@]4(C)[C@@]3(F)[C@@H](O)C[C@]2(C)[C@@]1(O)C(=O)CO :: no
Cc1c(C(=O)Nc2ccc(N3C[C@@H](C)O[C@@H](C)C3)nc2)cccc1-c1ccc(OC(F)(F)F)cc1 :: yes
Cc1cc(OCCCS(C)(=O)=O)cc(C)c1-c1cccc(COc2ccc3c(c2)OC[C@H]3CC(=O)O)c1 :: yes
Cc1ccc2c(c1)c1c(n2CCc2ccc(C)nc2)CCN(C)C1 :: no
COc1ccc(Cn2ccc3ccc(C(=O)NO)cc32)cc1 :: no

Entry `CN1CC(=O)NC1=NC(=O)Nc1cccc(Cl)c1` : call = ?
no

Request: `C=CCc1cccc(C=NNC(=O)CN2CCN(Cc3ccccc3)CC2)c1O`
yes

----------
assay: Identifying Small Molecule Inhibitors of Pancreatic Cancer Stem Cells (Panc1, Adherent) (AID 1259362); details: viability; series mostly up to 46.1 µM;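 note: compound exposure lasted 48 h before the viability read; plate controls were DMSO-treated cells for no effect and cell-free media wells for full effect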
Results filed as inconclusive are left out. Activity calls are given as the source filed them. Calls follow the shape of the dose curve; as a rule, active = well fitted cell-killing curve with a large enough effect; inconclusive = small, poorly fitted or top-dose-only effect, or effect the other way, or another doubt; inactive = no such curve, though single readings can be large or run the other way.
Log the outcome using a class from 1 = active, -1 = inactive

O=C(O)c1ccc(O)c2ncc(N3CCOCC3)cc12 :: -1

Now examine the next entry.
Test call, this compound: `COc1nc(C)cnc1NS(=O)(=O)c1cccnc1-c1ccc(-c2nnco2)cc1`
-1
